tested_system: human PI3Kα protein (Homo sapiens)
Construct: purchased Carna Biosciences, Inc; host or cells: Baculovirus expression system
test_description: PI3Kα enzyme assay (ADP-Glo kinase assay)
Type: biochemical
details: 3 nM PI3Kα, 50 μM PIP2, 100 μM ATP; read-out: PI3Kα, IC50
Experimental: Evaluation of the PI3Kα inhibitory activity of the compound of the present invention was carried out according to the method as described below. […] For the measurement of luminescence intensity, EnVision (PerkinElmer, Inc.) was used. The inhibitory activity of the compounds was evaluated using an IC50 (50% inhibitory concentration). The IC50 was calculated using XLfit (IDBS).
IC50 values by entry
Record the value in nM, omitting the unit from your answer.

Answered cases to consult:
INSERT INTO measurements (compound, result_type, numeric_readout) VALUES
  ('O=C(Nc1ccc2ncc(-c3cn[nH]c3)cc2n1)NC1C[C@H]2CC[C@@H]1C2 (stereo partly drawn)', 'IC50', 30),
  ('O=C(Nc1ccc2ncc(-c3cn[nH]c3)cc2n1)NC1CCCC1', 'IC50', 10);

// below: IC50 requested for another compound
Using the record for O=C(Nc1ccc2ncc(-c3cnn(CCCN4CCOCC4)c3)cc2n1)NC1CCCC1 , report its IC50.
4

* * *

tested_system: human PI3Kα protein (Homo sapiens, UniProt P42336)
Construct: purchased Carna Biosciences, Inc; host or cells: Baculovirus expression system
Sequence (P42336 whole entry): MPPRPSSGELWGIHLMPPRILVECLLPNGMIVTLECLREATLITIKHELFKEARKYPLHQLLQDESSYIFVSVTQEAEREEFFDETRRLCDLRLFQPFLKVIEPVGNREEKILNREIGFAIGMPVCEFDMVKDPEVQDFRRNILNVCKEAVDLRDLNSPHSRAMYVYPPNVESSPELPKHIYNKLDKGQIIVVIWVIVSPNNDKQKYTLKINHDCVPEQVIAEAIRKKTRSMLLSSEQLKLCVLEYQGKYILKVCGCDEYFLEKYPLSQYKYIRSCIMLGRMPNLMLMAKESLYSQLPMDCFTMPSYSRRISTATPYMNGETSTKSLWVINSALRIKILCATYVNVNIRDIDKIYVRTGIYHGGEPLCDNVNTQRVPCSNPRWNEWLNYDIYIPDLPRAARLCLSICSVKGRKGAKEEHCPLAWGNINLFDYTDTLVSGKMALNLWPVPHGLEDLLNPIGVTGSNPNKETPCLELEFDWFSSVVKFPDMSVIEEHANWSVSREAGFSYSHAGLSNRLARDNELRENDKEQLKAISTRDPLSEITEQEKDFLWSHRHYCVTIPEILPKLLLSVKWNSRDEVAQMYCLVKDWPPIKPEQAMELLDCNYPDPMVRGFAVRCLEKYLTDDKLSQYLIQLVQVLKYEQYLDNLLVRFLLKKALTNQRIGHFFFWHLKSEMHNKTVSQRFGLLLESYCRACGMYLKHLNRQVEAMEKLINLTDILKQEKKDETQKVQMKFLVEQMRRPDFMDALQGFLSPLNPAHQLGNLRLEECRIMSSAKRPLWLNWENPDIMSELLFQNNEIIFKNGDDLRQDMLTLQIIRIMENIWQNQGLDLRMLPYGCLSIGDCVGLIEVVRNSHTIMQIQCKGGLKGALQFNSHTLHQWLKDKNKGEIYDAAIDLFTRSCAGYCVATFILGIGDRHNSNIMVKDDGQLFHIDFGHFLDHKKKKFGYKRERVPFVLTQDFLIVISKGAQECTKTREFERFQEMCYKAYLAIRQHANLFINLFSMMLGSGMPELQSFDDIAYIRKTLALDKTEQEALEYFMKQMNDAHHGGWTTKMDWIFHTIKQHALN
Sequence (P27986 whole entry partner): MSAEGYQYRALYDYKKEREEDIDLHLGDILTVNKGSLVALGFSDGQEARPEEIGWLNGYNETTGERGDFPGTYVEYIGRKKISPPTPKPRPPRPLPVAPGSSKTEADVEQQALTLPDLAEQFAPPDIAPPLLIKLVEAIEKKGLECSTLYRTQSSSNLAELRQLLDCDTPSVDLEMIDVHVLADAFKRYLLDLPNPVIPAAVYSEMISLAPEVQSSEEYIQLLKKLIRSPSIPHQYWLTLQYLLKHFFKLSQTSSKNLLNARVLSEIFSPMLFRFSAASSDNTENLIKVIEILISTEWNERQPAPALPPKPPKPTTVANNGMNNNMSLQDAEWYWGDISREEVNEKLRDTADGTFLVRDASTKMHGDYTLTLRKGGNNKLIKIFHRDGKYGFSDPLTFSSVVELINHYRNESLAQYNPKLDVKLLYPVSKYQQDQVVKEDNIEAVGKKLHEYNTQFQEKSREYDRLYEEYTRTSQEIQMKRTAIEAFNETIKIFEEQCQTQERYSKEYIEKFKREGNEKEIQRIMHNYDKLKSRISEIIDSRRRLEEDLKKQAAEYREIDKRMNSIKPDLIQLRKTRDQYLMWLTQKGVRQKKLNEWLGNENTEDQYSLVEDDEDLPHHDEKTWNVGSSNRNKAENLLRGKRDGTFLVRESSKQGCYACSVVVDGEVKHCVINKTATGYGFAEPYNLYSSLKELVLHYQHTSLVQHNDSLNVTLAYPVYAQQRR
test_description: PI3Kα enzyme assay (ADP-Glo kinase assay)
Type: biochemical
details: IC50 class; 3 nM PI3Kα, 50 μM PIP2, 100 μM ATP; read-out: PI3Kα Inhibitory Activity
result_type: IC50

INSERT INTO assay_data (compound, result) VALUES
  ('O=C(Nc1ccc2ncc(-c3ccc(F)cc3)cc2n1)NC1CCCC1 [Compound 0020]', '100 to 1000 nM');

Entry CC(C)OCCNC(=O)Nc1ccc2ncc(-c3cn[nH]c3)cc2n1 [Compound 0099] has what IC50?
100 to 1000 nM

Any idea what its IC50 is? The compound is CCN(CC)CCNC(=O)Nc1ccc2ncc(-c3cn[nH]c3)cc2n1 [Compound 0109]
> 10000 nM

Need IC50, item O=C(NCC1CCCCO1)Nc1ccc2ncc(-c3cn[nH]c3)cc2n1 (centres unmarked) [Compound 0189]
100 to 1000 nM

I would be grateful if you could share the reported IC50 for CN1CCC(n2cc(-c3cnc4ccc(NC(=O)NC5CCCC5)nc4c3)cn2)CC1 [Compound 0228] .
< 100 nM

IC50 lookup needed for O=C(Nc1ccc2ncc(-c3cnn(CCN4CCOCC4)c3)cc2n1)NS(=O)(=O)c1ccccc1 [Compound 0208] , thanks.
> 10000 nM

Can you share its IC50? I mean this compound: O=C(Nc1ccc2ncc(-c3cnn(CCN4CCNCC4)c3)cc2n1)NC1CCCC1 [Compound 0051]
< 100 nM

# input compound: O=C(NCc1ccccc1)Nc1ccc2ncc(-c3cn[nH]c3)cc2n1 [Compound 0060] ; wanted: its IC50
100 to 1000 nM

Returns the measured IC50 for the input compound. Input: O=C(Nc1ccc2ncc(-c3ccc4c(c3)OCO4)cc2n1)NC1CCCC1 [Compound 0120]
100 to 1000 nM

Which value of IC50 has been reported for Cn1cc(-c2cnc3ccc(NC(=O)NC4CCCC4)nc3c2)c(CO)n1 [Compound 0216] in the records?
< 100 nM

Recorded IC50 for CN(C)CC(C)(C)Cn1cc(-c2cnc3ccc(NC(=O)NC4CCCC4)nc3c2)cn1 [Compound 0243] , please?
< 100 nM

Dear colleague, I am looking for the recorded IC50 of the following compound: O=C(Nc1ccc2ncc(C(=O)N3CCOCC3)cc2n1)NC1CCCC1 [Compound 0141]
> 10000 nM
